ASSAY PROCEDURE: NCI Yeast Anticancer Drug Screen. Data for the rad50 strain (AID 155);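 also: 0% = growth of vehicle-only cultures of the same strain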
STUDY CONDITIONS: S. cerevisiae rad50 strain growth inhibition, stronger effect = higher value; at 50.0 µM unless noted
About 79,000 compounds went through this panel and 15% of them were active in at least one assay; those are over-represented in the sample as a whole. The source made the active and inactive calls. Rule as the data show it: active = growth inhibition above about 70%; inactive = the rest.
QUANTITY MEASURED: growth inhibition

Take a look at these entries with their results.
CC(C)(C1CCC([Si](C2CCCCC2)(C2CCCCC2)C2CCCCC2)CC1)[Si](C1CCCCC1)(C1CCCCC1)C1CCCCC1 (stereo unspecified) :: 8% (inactive)
CCCCCCCCCCCCCCCCCCCCCCCCCCBr :: 0.85% (inactive)
N#Cc1sc2c(c1OC(=O)c1cccs1)c(=O)n(-c1ccccc1)c(=S)n2-c1ccccc1 :: 3.1% (inactive)
CCOC(=O)c1c(C)[nH]c(C(=O)CCN(C)C)c1C :: 7.35% (inactive)
C=CCc1cc2c(C)cc(=O)oc2c(C)c1OC(C)=O :: -4.1% (inactive)

Please examine the following record next.
Fill in: growth inhibition of COc1ccc(C=O)cc1OCc1ccccc1 is ___
-10.2% (inactive)

====

ASSAY PROCEDURE: NCI Yeast Anticancer Drug Screen. Data for the mlh1 rad18 strain (AID 175)
STUDY CONDITIONS: S. cerevisiae mlh1 rad18 strain growth inhibition, stronger effect = higher value; at 50.0 µM unless noted
About 79,000 compounds went through this panel and 15% of them were active in at least one assay; those are over-represented in the sample as a whole.
Listed here: items and their measured growth inhibition.
I only need the number, in %, no unit after it.

NC(=S)Nc1nnc(-c2ccc(-c3nnc(NC(N)=S)o3)cc2)o1 :: -8.05
Oc1ccc2ccccc2c1/C=C/c1ccc2c(Br)cc(Br)c(O)c2n1 :: 65.3
CO/C(=N\N=C\c1ccc(C(F)(F)F)cc1)c1ccncc1 :: 15.3
CCN(CC)C(=O)N(O)C1CCCCC1 :: -7.2
CNc1nc(=O)[nH]c(C)c1[N+](=O)[O-] :: 12.6

Fill blank: measured growth inhibition of the compound CN(C)c1nc(NC(=O)NC(=O)c2c(F)cccc2F)nc(N(C)C)n1 is ____.
10.3

====

ASSAY PROCEDURE: NCI Yeast Anticancer Drug Screen. Data for the rad50 strain (AID 155);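 also: 0% = growth of vehicle-only cultures of the same strain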
STUDY CONDITIONS: S. cerevisiae rad50 strain growth inhibition, stronger effect = higher value; at 50.0 µM unless noted
This is part of a sample that, as a whole, favours compounds with a hit. Of some 79,000 tested, about 15% had one in any assay. Where a SMILES comes first, the peptide text is derived from it. The star is where a group is joined. Cbz = O=C(OCc1ccccc1)*
QUANTITY MEASURED: growth inhibition (%)
# output: bare number, implied unit %

C=C1C=C2CCC3C(CCC4(C)C(C(C)CCCC(C)C)CCC34)C2(C)CC1 (configuration not stated) :: 82.5
COc1ccc(C(c2cc3c(cc2O)OCO3)N2CCN(C(c3ccc(OC)c(OC)c3)c3cc4c(cc3O)OCO4)CC2)cc1OC (configuration not stated) :: -3
COC(=O)C(CC(C)C)NC(=O)C(CC(N)=O)NC(=O)C(NC(=O)OCc1ccccc1)C(C)C (stereo not drawn) (Cbz-Val-Asn-Leu-OMe; configuration not given here) :: 38.1

Quick check: growth inhibition of N#CC(NNC(=O)Cc1ccccc1)c1ccc(O)cc1 (configuration not stated) ?
-18.1

State the recorded growth inhibition for this entry: O=C(COCC(=O)N/N=C/C=C/c1ccccc1)N/N=C/C=C/c1ccccc1
7.7

====

ASSAY PROCEDURE: NCI Yeast Anticancer Drug Screen. Data for the bub3 strain (AID 167)
STUDY CONDITIONS: S. cerevisiae bub3 mutant strain, stronger effect = higher value; at 50.0 µM unless noted
About 79,000 compounds went through this panel and 15% of them were active in at least one assay; those are over-represented in the sample as a whole. Calls of active or inactive are those of the source. No stated cut-off is given here; in the data, active means growth inhibition above about 70%; inactive means the rest.
The reader will find reported growth inhibition values listed item by item below.

Guide cases for growth inhibition, answers given:
CC(O)C(O)CC(/C=N/NC(=O)c1ccccc1)=N/NC(=O)c1ccccc1 (stereo not given) :: -0.75% (inactive)
CC1(C)SC(c2ccccc2)SC(c2ccccc2)S1 (stereo not given) :: -0.8% (inactive)
CCCC(=O)NC(Nc1ccc(S(=O)(=O)Nc2cc(C)on2)cc1)(C(=O)OCC)C(F)(F)F (stereo not given) :: -14.4% (inactive)
Cc1nn(C(=O)Cc2ccccc2)c2c1C(c1ccc(Cl)cc1)SC(N)=N2 (stereo not given) :: -23.6% (inactive)

Item N=C(N)c1ccc(NC(=S)Nc2ccc(C(=N)N)cc2)cc1 has what recorded growth inhibition?
16.4% (inactive)

Give the measured growth inhibition of CC(=O)N1C=CC(=Cc2ccccc2)C=C1 .
12.8% (inactive)

If you can, please state the reported growth inhibition value of COc1cc(CCCC(C(=O)O)C(=O)O)cc(OC)c1OC .
-0.9% (inactive)

====

ASSAY PROCEDURE: NCI Yeast Anticancer Drug Screen. Data for the sgs1 mgt1 strain (AID 161);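 also: 0% = growth of cultures given vehicle only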
STUDY CONDITIONS: S. cerevisiae sgs1 mgt1 strain, stronger effect = higher value; at 50.0 µM unless noted
The panel holds about 79,000 compounds, 15% with a hit somewhere; the sample as a whole holds those more often. Active and inactive are the calls of the source. Rule as the data show it: active = growth inhibition above about 70%; inactive = the rest.
QUANTITY MEASURED: growth inhibition

CS(=O)(=O)Nc1c(-c2ccccc2)oc2ccccc2c1=O :: -6.5% (inactive)
N#Cc1c(-c2ccccc2)c(-c2ccccc2)nn(CCO)c1=O :: 20.9% (inactive)
NC(COC(=O)NCCCl)C(=O)O (configuration not stated) :: -0.35% (inactive)
Cc1ccc(S(=O)(=O)N(C)CCCC#N)cc1 :: 6.2% (inactive)
COc1cc2c(cc1OCc1ccccc1)C(Cc1cc(Br)sc1Br)=NCC2 :: 54% (inactive)
CC(=O)c1cccc(NC(=O)CCCCCCCCC(=O)Nc2cccc(C(C)=O)c2)c1 :: -1.55% (inactive)

Attention now turns to another entry.
Query (compound): O=C(O)/C=C1\NC(=O)NC1=O ; field requested: growth inhibition
11.8% (inactive)

====

ASSAY PROCEDURE: NCI Yeast Anticancer Drug Screen. Data for the mec2-1 strain (AID 157)
STUDY CONDITIONS: S. cerevisiae mec2-1 strain; at 50.0 µM unless noted
About 79,000 compounds went through this panel and 15% of them were active in at least one assay; those are over-represented in the sample as a whole. Activity calls are given as the source filed them. Cut-off read from the data, not from the text of the source: active = growth inhibition above about 70%; inactive = the rest.
Just give me one of these, please: active, inactive

COC1(OC)C(C#N)=C(c2ccccc2)C1(OC)OC :: inactive
O=C(O)CCN1C(=O)CSC1=S :: inactive

Could you check what this test reported for Clc1ccccc1NN(Cc1ccncc1)c1ccccc1Cl ?
inactive

Lab log entry: CCCn1/c(=N\N=O)sc2ccccc21 — outcome as called in the assay?
inactive

I would be grateful if you could indicate the recorded call for CCCCN(CCCC)C(=N)c1ccccc1C .
inactive

Record lookup: outcome of this test for COc1ccc(-c2cc(=O)c3c(O)c(O)c(OC)cc3o2)cc1O ?
inactive

Outcome logged for CCOC(=C\C(=O)NC)/C=C/c1ccc([N+](=O)[O-])cc1 in this assay:
inactive

Please let me know the test result on file for CC1=CCC2C(C)(C)CCCC2(C)C1COC1OC(OCC2C(C)=CCC3C(C)(C)CCCC23C)C2C1=CCC1C(C)(C)CCCC21C (stereo not given) .
active

Would you mind telling me which call this test gave CC1=C(C(=O)CC(=O)C(=O)Nc2ccc(Cl)cc2C)Sc2ccccc2N1 ?
inactive

How did this test come out for CCSc1nnc(Sc2c3ccccc3nc3ccccc23)s1 ?
inactive

What did the test return for CCCCCCCCCCCCCCCCCCNC(=S)N/N=C/c1ccccc1[N+](=O)[O-] ?
inactive

Please indicate how the test categorized CCCCCCCC[n+]1ccc(C#N)cc1 .
inactive

====

Examples of compounds with documented growth inhibition follow.
ASSAY PROCEDURE: NCI Yeast Anticancer Drug Screen. Data for the bub3 strain (AID 167)
STUDY CONDITIONS: S. cerevisiae bub3 mutant strain, stronger effect = higher value; at 50.0 µM unless noted
About 79,000 compounds went through this panel and 15% of them were active in at least one assay; those are over-represented in the sample as a whole.
The figure you give is taken to be in %; do not add the unit.

OC1(C2NCCc3ccccc32)CCN(CCc2ccccc2)CC1 (configuration not stated) :: 2.95
COC(=O)c1cc(C)n(C)c(=O)c1CN :: -8.8
CCc1ccccc1NC(=O)C(=O)CC(=O)c1sc(Nc2ccccc2Cl)nc1C :: -2.65

// growth inhibition lookup, key: Nc1nc(N)c(N=O)c(Nc2ccccc2)n1
41.6

Would you kindly share the measured growth inhibition for c1ccc2c3c([nH]c2c1)CCCC3 ?
11.5

Please report the recorded growth inhibition for O=[N+]([O-])c1ccc(Sc2ncnc3c2ncn3C2OC(CO)C(O)C2O)c2nonc12 (configuration not stated) .
-2.95

Dear colleague, I am looking for the recorded growth inhibition of the following compound: Cc1cc(Nc2nnc(-c3cccnc3Oc3ccccc3)s2)ccc1Br
0.5

Can you look up the measured growth inhibition of CCCCCCC1OC(C)C(C)O1 (configuration not stated) for me?
-3.95

Reported growth inhibition, compound COc1ccc(N=C=Nc2ccc(OC)cc2)cc1 : ____
-10.2

Which growth inhibition reading was recorded for the compound CC(=C/c1ccccc1)/C=C1/NC(=S)NC1=O ?
-23.4
